The values you see were collected from ChEMBL document CHEMBL5291721.

Lab note: AC50 readings collected with Gamma-aminobutyric acid receptor subunit alpha-1 (Rattus norvegicus) for the following compounds.
Sequence (P62813 whole entry): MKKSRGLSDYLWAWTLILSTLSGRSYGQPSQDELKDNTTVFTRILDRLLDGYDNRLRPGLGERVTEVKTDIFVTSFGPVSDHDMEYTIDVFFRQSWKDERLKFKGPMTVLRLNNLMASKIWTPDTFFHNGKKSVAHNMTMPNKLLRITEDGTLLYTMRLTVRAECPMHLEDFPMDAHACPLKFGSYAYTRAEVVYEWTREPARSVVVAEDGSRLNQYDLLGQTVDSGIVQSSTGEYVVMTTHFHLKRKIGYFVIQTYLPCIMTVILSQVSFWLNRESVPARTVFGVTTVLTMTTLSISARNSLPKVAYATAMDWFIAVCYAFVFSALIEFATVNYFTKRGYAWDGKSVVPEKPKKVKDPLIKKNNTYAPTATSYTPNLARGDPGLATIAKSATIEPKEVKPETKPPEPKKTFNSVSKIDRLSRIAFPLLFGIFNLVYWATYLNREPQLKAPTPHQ

Known AC50 results, listed for orientation:
compound	AC50
CN1C(=O)CCS(=O)(=O)C1c1ccc(Cl)cc1 (stereo unspecified)	> 10 µM
CC(C)OC(=O)CCC/C=C\C[C@@H]1[C@@H](CC[C@@H](O)CCc2ccccc2)[C@H](O)C[C@@H]1O	> 30 µM
CC/C(=C(\c1ccccc1)c1ccc(OCCN(C)C)cc1)c1ccccc1	> 10 µM
NCC(CC(=O)O)c1ccc(Cl)cc1 (stereo unspecified)	> 10 µM
Fc1ccc(C(c2ccccc2)(c2ccccc2F)n2ccnc2)cc1 (stereo unspecified)	> 30 µM

Hi there! I need AC50 for each item below, if you can.
1. c1ccc([C@H]2CN3CCSC3=N2)cc1
2. CCCCN1C[C@H](O)[C@@H](O)[C@H](O)[C@H]1CO
3. CC[C@H]1OC(=O)[C@H](C)[C@@H](O[C@H]2C[C@@](C)(OC)[C@@H](O)[C@H](C)O2)[C@H](C)[C@@H](O[C@@H]2O[C@H](C)C[C@H](N(C)C)[C@H]2O)[C@](C)(O)C[C@@H](C)CN(C)[C@H](C)[C@@H](O)[C@]1(C)O
4. O=C(NCCN1CCOCC1)c1ccc(Cl)cc1 [MOCLOBEMIDE]
5. C=CCN1C[C@H](C(=O)N(CCCN(C)C)C(=O)NCC)C[C@@H]2c3cccc4[nH]cc(c34)C[C@H]21
6. Cc1ccc(S(=O)(=O)NC(=O)NN2CC3CCCC3C2)cc1 (stereo unspecified) [GLICLAZIDE]
7. COC(=O)C1=C(C)NC(C)=C(C(=O)OC(C)(C)CN(C)CCC(c2ccccc2)c2ccccc2)C1c1cccc([N+](=O)[O-])c1 (stereo unspecified)
8. CC(C)=CCC/C(C)=C/C=C/C(C)=C/C=C/C(C)=C/C=C/C=C(C)/C=C/C=C(C)/C=C/C=C(\C)CCC=C(C)C

Completion:
> 30 µM
> 30 µM
> 30 µM
> 10 µM
> 10 µM
> 10 µM
> 30 µM
> 30 µM

Hi there! I need AC50 for each item below, if you can.
1. Cc1oc(=O)oc1CN1CCN(c2cc3c(cc2F)c(=O)c(C(=O)O)c2n3C(C)S2)CC1 (stereo unspecified)
2. COc1ccccc1OCCNCC(O)c1ccc(C)c(S(N)(=O)=O)c1 (stereo unspecified)
3. Nc1nc(NC2CC2)c2ncn([C@H]3C=C[C@@H](CO)C3)c2n1

Completion:
1. > 30 µM
2. > 30 µM
3. > 30 µM

----------
Can you tell me AC50 for the items I'm about to list?
- test target: D(1A) dopamine receptor (Homo sapiens, UniProt P21728); note: assay procedure not described here
- Sequence (P21728 whole entry): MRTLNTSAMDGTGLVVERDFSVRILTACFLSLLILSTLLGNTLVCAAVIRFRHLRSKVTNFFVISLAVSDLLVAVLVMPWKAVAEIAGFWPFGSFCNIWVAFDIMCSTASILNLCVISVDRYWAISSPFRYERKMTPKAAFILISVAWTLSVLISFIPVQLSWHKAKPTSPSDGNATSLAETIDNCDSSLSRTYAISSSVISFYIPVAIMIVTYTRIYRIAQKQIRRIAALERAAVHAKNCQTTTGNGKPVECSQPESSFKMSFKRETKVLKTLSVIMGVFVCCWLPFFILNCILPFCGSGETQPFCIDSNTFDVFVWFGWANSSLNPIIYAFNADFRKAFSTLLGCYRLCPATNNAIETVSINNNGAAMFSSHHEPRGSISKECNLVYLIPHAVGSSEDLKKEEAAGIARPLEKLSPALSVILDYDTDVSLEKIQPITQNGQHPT
- Assay type: functional, cell-based

>>> df
                                   compound  quantity  obs_value
0  COc1ccc2c3c1O[C@H]1C(=O)CC[C@@]4(O)[C@@H](C2)N(C)CC[C@]314      AC50    > 30 µM
1  CN(C)CC/C=C1\c2ccccc2CSc2ccccc21 [DOTHIEPIN]      AC50    > 30 µM

Hi there! I need AC50 for each item below, if you can.
1. Cc1cccc(C(C)c2cnc[nH]2)c1C (stereo not given)
2. COc1ccc(C(=O)Nc2ccccc2CCC2CCCCN2C)cc1 (stereo not given) [ENCAINIDE]
3. COc1ccccc1OCCNCC(O)c1ccc(C)c(S(N)(=O)=O)c1 (stereo not given)
4. CN(C)CCC=C1c2ccccc2C=Cc2ccccc21
5. C#C[C@]1(O)CC[C@H]2[C@@H]3CCc4cc(OC5CCCC5)ccc4[C@H]3CC[C@@]21C
6. CCCCCNC(=N)N/N=C/c1c[nH]c2ccc(OC)cc12
7. CN1CCC(=C2c3ccccc3CCc3sccc32)CC1
8. Clc1ccc2nsnc2c1NC1=NCCN1

Completion:
1: > 30 µM; 2: > 10 µM; 3: > 30 µM; 4: > 10 µM; 5: > 10 µM; 6: 0.34 µM; 7: > 30 µM; 8: > 10 µM
